- Measured target: GABAA receptors (α5β2γ2) (Homo sapiens, UniProt P18507+P31644)
- Construct: expressed in transfected cells
- Sequence (P31644 32-462): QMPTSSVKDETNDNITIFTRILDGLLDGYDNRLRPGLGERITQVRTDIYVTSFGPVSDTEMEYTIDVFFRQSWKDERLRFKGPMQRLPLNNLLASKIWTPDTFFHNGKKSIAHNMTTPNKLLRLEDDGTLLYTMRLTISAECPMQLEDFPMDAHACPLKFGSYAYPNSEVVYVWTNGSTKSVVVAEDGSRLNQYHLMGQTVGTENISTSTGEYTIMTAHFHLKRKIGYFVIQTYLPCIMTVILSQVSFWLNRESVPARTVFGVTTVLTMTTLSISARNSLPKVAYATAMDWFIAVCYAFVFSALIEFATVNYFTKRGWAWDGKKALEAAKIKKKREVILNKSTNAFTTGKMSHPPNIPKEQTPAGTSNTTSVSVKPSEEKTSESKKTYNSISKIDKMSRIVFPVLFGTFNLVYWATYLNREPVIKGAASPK
- Sequence (P47870 25-512 partner limits assumed): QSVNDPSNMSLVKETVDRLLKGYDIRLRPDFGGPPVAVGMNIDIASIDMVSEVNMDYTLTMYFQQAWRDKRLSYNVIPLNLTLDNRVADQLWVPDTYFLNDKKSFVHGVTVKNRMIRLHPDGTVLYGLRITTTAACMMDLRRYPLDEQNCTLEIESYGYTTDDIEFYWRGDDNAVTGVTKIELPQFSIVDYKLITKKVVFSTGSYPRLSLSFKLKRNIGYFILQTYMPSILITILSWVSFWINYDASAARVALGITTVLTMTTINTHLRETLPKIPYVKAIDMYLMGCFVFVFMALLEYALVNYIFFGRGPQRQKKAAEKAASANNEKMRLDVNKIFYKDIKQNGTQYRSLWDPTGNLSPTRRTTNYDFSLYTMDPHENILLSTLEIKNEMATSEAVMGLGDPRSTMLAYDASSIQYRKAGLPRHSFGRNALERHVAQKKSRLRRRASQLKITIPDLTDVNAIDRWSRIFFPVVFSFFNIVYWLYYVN
- Sequence (P18507 40-475): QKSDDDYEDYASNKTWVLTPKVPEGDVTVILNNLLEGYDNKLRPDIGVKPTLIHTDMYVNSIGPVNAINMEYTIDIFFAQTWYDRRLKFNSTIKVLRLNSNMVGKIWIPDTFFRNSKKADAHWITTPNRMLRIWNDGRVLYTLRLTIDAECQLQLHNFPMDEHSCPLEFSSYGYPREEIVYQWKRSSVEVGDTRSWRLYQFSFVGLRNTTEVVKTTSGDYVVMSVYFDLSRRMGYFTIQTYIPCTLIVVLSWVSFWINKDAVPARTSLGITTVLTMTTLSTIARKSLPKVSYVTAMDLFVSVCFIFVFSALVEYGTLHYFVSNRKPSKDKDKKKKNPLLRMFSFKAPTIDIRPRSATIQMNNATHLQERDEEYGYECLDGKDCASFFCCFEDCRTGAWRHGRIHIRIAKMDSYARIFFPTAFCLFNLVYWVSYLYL
- Test: Positive allosteric modulator activity: potentiation of EC20 GABA current in oocytes
- Format: cell-based
- Particulars: read-out: GABA α5 functional potentiation

Molecule	Measured target	activation at 0.1 µM
CCOCc1nnc2n1Cc1c(-c3noc(C(C)C)n3)ncn1-c1ccc(OC)cc1-2 [Compound 173]	GABAA receptors (α5β2γ2) (Homo sapiens, UniProt P18507+P31644)	> 50%
COc1ccc2c(c1)-c1nnc(COc3cccnc3)n1Cc1c(-c3noc(C(C)C)n3)ncn1-2 [Compound 176]	GABAA receptors (α5β2γ2) (Homo sapiens, UniProt P18507+P31644)	> 50%
CCOC(=O)c1ncn2c1Cc1c(C)nnn1-c1cc(F)ccc1-2 [Compound 2]	GABAA receptors (α5β2γ2) (Homo sapiens, UniProt P18507+P31644)	20 to 49%
COCc1nnc2n1Cc1c(-c3nc(C)no3)ncn1-c1ccc(Cl)cc1-2 [Compound 198]	GABAA receptors (α5β2γ2) (Homo sapiens, UniProt P18507+P31644)	20 to 49%
